Protocol Summary: Microsomal stability assay, human
Assay type: in vitro ADME
Conditions Used: pooled human liver microsomes (microsomal (S9) fractions), % remaining parent compound, UGT Enz. (Phase-II), 60 min
Measured remaining at 1 h, listed per entry for reference.
Entry rule: numbers only, all in %.

Cc1ncnc2c1c(Cl)cn2[C@@H]1O[C@H](CO)[C@@H](O)[C@H]1O [compound 7] = 96

Task item: Please give the documented remaining at 1 h of CCc1cn([C@@H]2O[C@H](CO)[C@@H](O)[C@H]2O)c2ncnc(C)c12 [compound 13]
Reply: 96

---

Protocol Summary: PMM cytotoxicity
Type: cell-based, mouse
Conditions Used: Swiss, mouse, PMM CC50, primary peritoneal mouse macrophages
Measured CC50 at 5 days, listed per entry for reference.

Solved cases below.
C=Cc1cn([C@@H]2O[C@H](CO)[C@@H](O)[C@H]2O)c2ncnc(C)c12 = > 64 µM
CCCCCCc1cn([C@@H]2O[C@H](CO)[C@@H](O)[C@H]2O)c2ncnc(C)c12 = > 64 µM
CCc1cn([C@@H]2O[C@H](CO)[C@@H](O)[C@H]2O)c2ncncc12 = > 64 µM

Task item: Please give the documented CC50 at 5 days of Cc1ncnc2c1c(C1CCCCC1)cn2[C@@H]1O[C@H](CO)[C@@H](O)[C@H]1O
Reply: > 64 µM

Task item: Please give the documented CC50 at 5 days of CCc1cn([C@@H]2O[C@H](CO)[C@@H](O)[C@H]2O)c2ncnc(CC)c12
Reply: > 64 µM

Task item: Please give the documented CC50 at 5 days of C=C(C)c1cn([C@@H]2O[C@H](CO)[C@@H](O)[C@H]2O)c2ncnc(C)c12
Reply: > 64 µM

Task item: Please give the documented CC50 at 5 days of Cc1cn([C@@H]2O[C@H](CO)[C@@H](O)[C@H]2O)c2ncnc(C)c12
Reply: > 64 µM

Task item: Please give the documented CC50 at 5 days of Cc1ncnc2c1c(F)cn2[C@@H]1O[C@H](CO)[C@@H](O)[C@H]1O
Reply: 32 µM

Task item: Please give the documented CC50 at 5 days of CCc1cn([C@@H]2O[C@H](CO)[C@@H](O)[C@H]2O)c2ncnc(N)c12
Reply: > 64 µM

Task item: Please give the documented CC50 at 5 days of CCOc1ncnc2c1c(CC)cn2[C@@H]1O[C@H](CO)[C@@H](O)[C@H]1O
Reply: > 64 µM

Task item: Please give the documented CC50 at 5 days of CCc1cn([C@@H]2O[C@H](CO)[C@@H](O)[C@H]2O)c2ncnc(C)c12
Reply: > 64 µM

Task item: Please give the documented CC50 at 5 days of Cc1ncnc2c1c(CCC(C)C)cn2[C@@H]1O[C@H](CO)[C@@H](O)[C@H]1O
Reply: > 64 µM

Task item: Please give the documented CC50 at 5 days of Cc1ncnc2c1c(C1CCCC1)cn2[C@@H]1O[C@H](CO)[C@@H](O)[C@H]1O
Reply: > 64 µM

Task item: Please give the documented CC50 at 5 days of Cc1ncnc2c1c(C(C)C)cn2[C@@H]1O[C@H](CO)[C@@H](O)[C@H]1O
Reply: > 64 µM

Task item: Please give the documented CC50 at 5 days of CCCC#Cc1cn([C@@H]2O[C@H](CO)[C@@H](O)[C@H]2O)c2ncnc(C)c12
Reply: > 64 µM

Task item: Please give the documented CC50 at 5 days of CC(C)=Cc1cn([C@@H]2O[C@H](CO)[C@@H](O)[C@H]2O)c2ncnc(C)c12
Reply: > 64 µM
